Assay: NCI Yeast Anticancer Drug Screen. Data for the rad50EPP+ strain (AID 151);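 also: 0% = growth of vehicle-treated control cultures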
Details: S. cerevisiae rad50 mutant strain, at 11.0 µM, hits give high values
Compounds without any hit were thinned out: in the full panel of roughly 79,000, 15% have a hit. Calls of active or inactive are those of the source. Rule as the data show it: active = growth inhibition above about 70%; inactive = the rest.
property name: growth inhibition

Completed entries (count: 2):
compound: O=c1nc2n(Cc3ccccc3)c3ccccc3nc-2c(=O)[nH]1
meas value: 74% (active)

compound: Cc1ccc(N=Nc2ccc(O)c(=O)cc2)cc1
meas value: -24% (inactive)

Please state growth inhibition for every compound in the list that follows.
1. O=C(c1ccc([N+](=O)[O-])cc1)C1N=NCC1c1ccccc1 (centres undefined)
2. S=c1[nH]c2cc3ccccc3cc2[nH]1

Reply |
1. -2% (inactive)
2. -4% (inactive)

====

Assay: NCI Yeast Anticancer Drug Screen. Data for the sgs1 mgt1 strain (AID 161);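 also: 0% = growth of cultures given vehicle only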
Details: S. cerevisiae sgs1 mgt1 strain, at 50.0 µM
About 79,000 compounds went through this panel and 15% of them were active in at least one assay; those are over-represented in the sample as a whole. The source made the active and inactive calls. Cut-off read from the data, not from the text of the source: active = growth inhibition above about 70%; inactive = the rest.
Output constraint: value belongs to 1.0 = active, 0.0 = inactive

Use the examples below as a reference point.
compound: O=C1C=C(N2CCN(c3ccccn3)CC2)C(=O)c2c(O)ccc(O)c21
classification: 1.0

compound: CN1C(=O)c2ccc3ccccc3c2C1=O
classification: 0.0

compound: O=C(NCCCNCCN1C(=O)c2cccc3cc([N+](=O)[O-])cc(c23)C1=O)c1cc(-c2ccccc2)nc2ccccc12
classification: 1.0

compound: COc1ccc(C2C3=C(COC3=O)OC(C)(C)Oc3cc4c(cc32)OCO4)cc1OC (stereo not given)
classification: 1.0

compound: OC(CCNCc1ccccc1)c1ccc2ccccc2c1 (stereo not given)
classification: 1.0

Ask | Assay result, entry Cc1ccc([N+]2=NC(c3ccccc3)=NN(c3ccccc3)C2)cc1 — outcome?
Reply | 1.0

Ask | Assay result, entry Cc1cccc[n+]1C1CCc2c(ccc3ccccc23)C1=O (stereo not given) — outcome?
Reply | 1.0

Ask | Assay result, entry CCn1c(O)c(C=Nc2ccccc2)s/c1=N/Nc1nc(-c2ccccc2)cs1 — outcome?
Reply | 0.0

Ask | Assay result, entry O=C(/C=C/c1cc(Cl)cc(Cl)c1O)c1cccc(O)c1 — outcome?
Reply | 1.0

Ask | Assay result, entry CCCCCCOC(=O)NCCOC(=O)Nc1ccccc1 — outcome?
Reply | 0.0

Ask | Assay result, entry O=C1C=C(c2ccccc2)OC1(c1ccccc1)N1CCOCC1 (stereo not given) — outcome?
Reply | 0.0

Ask | Assay result, entry CCOC(=O)c1cc([N+](=O)[O-])c(Sc2ncnc3nc[nH]c23)c([N+](=O)[O-])c1 — outcome?
Reply | 0.0

====

Assignment: determine reported growth inhibition for the given compounds.
Test: NCI Yeast Anticancer Drug Screen. Data for the rad52 strain (AID 147);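 also: 0% = growth of vehicle-treated control cultures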
Details: S. cerevisiae rad52 mutant growth inhibition; at 3.7 µM; hits give high values
Description: Growth inhibition of yeast strains with defined genetic alterations is measured as a screen for potential anti-cancer activity. Selected strains with alterations in DNA damage repair or cell cycle control were exposed to compounds and growth inhibition was measured relative to vehicle treated controls. The strain used in this assay is rad52
About 79,000 compounds went through this panel and 15% of them were active in at least one assay; those are over-represented in the sample as a whole.
Answers are plain numbers, in %.

compound: CC(=O)OC1CC2C(C)(C)C(=O)C=C[C@]2(C)C2CCC3(C)C(=CCC3[C@H](CO)C[C@H](O)C(=O)C(C)(C)O)[C@]12C (stereo not given in full)
units symbol: %
growth inhibition: -4
//
compound: CCC(C)(C)c1ccc(Oc2cccc(C(=O)O)c2)cc1
units symbol: %
growth inhibition: -1
//
compound: O=Cc1ccc2c(c1)C(=O)c1ccccc1C2=O
units symbol: %
growth inhibition: 11
//
compound: CC(C)CN(CC(C)C)C(=O)c1ccc(Cl)c(Cl)c1
units symbol: %
growth inhibition: 0
//
compound: O=[N+]([O-])c1cc(S(=O)(=O)Nc2ccccc2)ccc1Nc1ccccc1
units symbol: %
growth inhibition: 13
//
compound: O=C(O)c1cc2ccc(Cl)cc2c(O)c1C1=CCCCC1
units symbol: %
growth inhibition: 8
//
compound: NCCNCCNc1ccc(NCCNCCN)c2c1C(=O)c1c(O)ccc(O)c1C2=O
units symbol: %
growth inhibition: 48
//
compound: Cc1nc(Nc2ccccc2[N+](=O)[O-])sc1C(=O)CC(=O)C(=O)Nc1c(C(C)C)cccc1C(C)C
units symbol: %
growth inhibition: -2
//
compound: Cc1ccc2nc(-c3cccc([N+](=O)[O-])c3)oc(=O)c2c1
units symbol: %
growth inhibition: 6

Shifting focus to the compound that follows.
Ask | Would you kindly share the measured growth inhibition for O=C(/C=C\c1cccc(C(F)(F)F)c1)c1ccccc1 ?
Reply | -2
